- Test system: SF-539 CNS
- Protocol Summary: NCI-60 one-dose screen, 48 h (100 = growth as untreated, 0 = no growth, -100 = all killed)
- Experimental Context: 10 µM unless noted
This is part of a sample that, as a whole, favours compounds with a hit. Of some 83,000 tested, about 20% had one in any assay.
Below, each entry is listed alongside its reported growth.
Unit % implied. Number only.

// known answers, use as guide
Query block: May I ask what growth has been recorded for CCn1c2ccccc2c2cc(-n3nncc3-c3ccccc3)ccc21 ?
Result block: -17.7

Query block: Same lookup for COc1ccc(Oc2ccc(/C=N/NC(=O)CSc3nc4ccccc4c(=O)n3-c3ccc(Cl)cc3)cc2)cc1 , please.
Result block: 32.2

Query block: Same lookup for Cc1cc(-c2ccc(Cl)cc2)n(Cc2nnc(SCC(=O)Nc3ccc(S(N)(=O)=O)cc3)n2C2CCCCC2)n1 , please.
Result block: 103

Query block: Same lookup for O=C(NNc1nc2cc(F)cc(F)c2n2cccc12)c1cnccn1 , please.
Result block: 7.61

Query block: Same lookup for CN(Cc1ccccc1)S(=O)(=O)/N=C1\NC(=O)NC1=C(Cl)Cl , please.
Result block: 0.38

***
Query block: May I ask what growth has been recorded for CCC(CC)N1C(=O)/C(=c2\sc3n(c2=O)NC2C(N=3)N(CC)C(=O)N2CC)c2ccccc21 (centres undefined) ?
Result block: 25.2

Query block: Same lookup for COc1ccc(OC)c(-c2nc(SCC(=O)c3ccc(Br)cc3)nc(Nc3ccc(S(N)(=O)=O)cc3)c2C#N)c1 , please.
Result block: 28.4

Query block: Same lookup for CCNC(=O)N1CCc2cc(OC)c(OCCc3ccc(OC)c(N)c3)cc2C1c1cc(C)c(C)cc1C (centres undefined) , please.
Result block: 26.4

Query block: Same lookup for NC(N)=Nc1ccc(Oc2cccc(NC(N)=Nc3ccc(I)cc3F)c2)cn1 , please.
Result block: 60.3

###

- System: MDA-MB-231 breast
- Protocol Summary: NCI-60 one-dose screen, 48 h
- Experimental Context: 10 µM unless noted
- Experimental: Cells are grown in 96 well plates and exposed to the test compound for 48 hours. Compounds are tested at a single concentration, which is 10^-5 M for most compounds. The reported endpoint is percent growth (GI% or GIPRCNT), where numbers from 0 - 100% represent growth inhibition, and numbers from -100% - 0 represent cell death. For example, a value of 40 represents 60% growth inhibition. A value of 0 means no net growth occurred over the course of the experiment. […]
This is part of a sample that, as a whole, favours compounds with a hit. Of some 83,000 tested, about 20% had one in any assay. Active and inactive are the calls of the source. Rule for the calls: active = growth percent below 10; inactive = the rest.
Respond with a class label; see 1.0 for active, 0.0 for inactive

Before answering, review these 5 worked examples.
Query block: Please let me know the test result on file for COc1cc(OC)c(/C=C/S(=O)(=O)Cc2ccc(OC)c(NC(=O)CCC(=O)NO)c2)c(OC)c1 .
Result block: 0.0

Query block: Same lookup for Cc1cc(-c2ccc(Cl)cc2)n(Cc2nnc(SCC(=O)Nc3ccc(S(N)(=O)=O)cc3)n2C2CCCCC2)n1 , please.
Result block: 0.0

Query block: Same lookup for CS(=O)(=O)Nc1cc(-c2ccc3ncc(C#N)c(NCc4ccccc4)c3c2)cnc1Cl , please.
Result block: 1.0

Query block: Same lookup for COc1cc(/C=C2\C(=O)Nc3ccccc32)ccc1OCc1ccc(Cl)cc1 , please.
Result block: 0.0

Query block: Same lookup for COc1ccc(-c2nc3cccc(O)c3c(=O)n2Cc2ccccc2)cc1COc1ccc(NC(C)=O)cc1 , please.
Result block: 0.0

***
Query block: Please let me know the test result on file for COc1cc(/C=C2\C(=O)Nc3ccccc32)ccc1OCc1ccc(F)cc1 .
Result block: 0.0

Query block: Same lookup for CCCCCCCn1cc2c(NCCc3ccccc3)ncnc2n1 , please.
Result block: 0.0

Origin of measurements: PubChem BioAssay (NCI)
